Tested on: DMS-273
assay: NCI tumour cell line growth inhibition, 48 h
Active and inactive are the calls of the source. No stated cut-off is given here; in the data, active = GI50 up to about 1.1 µM and inactive = higher.
Measured GI50, listed per entry for reference.

These solved cases illustrate the format of a correct answer.
What value of GI50 has been recorded for this entry: C/C(=N\NC(=N)N)C(CN(CC(C)C)CC(C)C)C(=O)Nc1ccc(C)cc1C (stereo unspecified) > 100 µM (inactive)

What value of GI50 has been recorded for this entry: O=C1C(c2ccccc2)=C(c2ccccc2)C(c2ccc(Cc3ccc(C4=C(c5ccccc5)C(=O)C(c5ccccc5)=C4c4ccccc4)cc3)cc2)=C1c1ccccc1 > 100 µM (inactive)

// GI50 lookup, key: c1cc2[se][se]c3c4cccc5[se][se]c(c(c1)c23)c54 > 100 µM (inactive)

GET /values?readout=GI50&item= COc1ccccc1NC(=O)C1=C(C)NC(C)=C(C(=O)Nc2ccccc2OC)C1/C=C/c1ccccc1 > 100 µM (inactive)

Requested read-out: GI50. Entry: CC#CC1C2CCCC1(CSc1ccccc1)NC(=O)O2 (stereo unspecified) > 100 µM (inactive)

Next, consider the following compound.
Need GI50, item CC(C)=CCC(OC(=O)C=C(C)C)c1cc(O)c2c(c1O)C(=O)C=CC2=O (stereo unspecified) 1.98 µM (inactive)

----------
Tested on: COLO 205
assay: NCI tumour cell line growth inhibition, 48 h
Activity calls are given as the source filed them. No stated cut-off is given here; in the data, active = GI50 up to about 1.1 µM and inactive = higher.
Pick one and only one: active, inactive

Hi, do you know how CSc1nc(Cl)c2c(n1)Sc1nc3cc4c(cc3n1C2O)OCO4 (stereo not given) came out in this test? active

What call does the record list for COc1ccc(-c2c3ccccc3c(-c3ccc(OCCBr)cc3)c3ccccc23)cc1 ? inactive

I'd appreciate the recorded outcome for C=C[C@@H]1C(CO)=CCC2[C@H]1CCC1C(C)(C)C(=O)CC[C@]21C (stereo not given in full) from this test. inactive

Further cases:
How was Nc1nc(N)c(N=O)c(Nc2ccc(I)cc2)n1 classified in this test? inactive

I would be grateful if you could indicate the recorded call for COc1ccc(Nc2c[nH]c(=O)[nH]c2=O)cc1 . inactive

----------
Tested on: NCI-H226
assay: NCI tumour cell line growth inhibition, 48 h
Activity calls are given as the source filed them. Cut-off read from the data, not from the text of the source: active = GI50 up to about 1.1 µM and inactive = higher.
assay.metric: GI50

What value of GI50 has been reported for the following compound? Cc1csc(-n2nc(C)cc2C)n1 > 100 µM (inactive)

Could you tell me which GI50 is on file for CC(C)OC(=O)c1ccc(NCC2=CC(=O)C=CC2=O)cc1 ? 30 µM (inactive)

What does the data say about its GI50? Entry: C=CC(=O)N1C/C(=C\c2ccc(N(C)C)cc2)C(=O)/C(=C/c2ccc(N(C)C)cc2)C1 > 100 µM (inactive)

Field request: GI50 | item: CCCCCCCCCc1cc(=O)c2ccc(OCc3ccccc3)cc2o1 34.7 µM (inactive)

Reported GI50, compound O=c1c(=O)c2cscc2c1=O : ____ 5.55 µM (inactive)

Data request, read-out GI50, for CC1CCC23COC(=O)C2C(O)CCC3C1(C)CC(O)c1ccoc1 (stereo not given) > 100 µM (inactive)

----------
Tested on: 786-0
assay: NCI tumour cell line growth inhibition, 48 h
Activity calls are given as the source filed them. Cut-off read from the data, not from the text of the source: active = GI50 up to about 1.1 µM and inactive = higher.
Please reply with one of these outcomes: active, inactive

// param item: CN1CCN(CN2C(=O)C3C4C=CC(C3C2=O)C2C(=O)N(CN3CCN(C)CC3)C(=O)C42)CC1 (stereo not given) ; yields the recorded call inactive

***
For this compound, state the assay outcome: N=C1C=CC(=C(c2ccc(N)cc2)c2ccc(N)cc2)C=C1 inactive
